FYI, the data here is from patent US11918645B2.

Please provide measured Number of nonamers having a binding score >= 45%, HLA-B*0702 for the entries that follow.
System under test: HLA-B*0702 (Homo sapiens, UniProt P01889)
Construct: purchased ProImmune
Assay explanation: ProImmune REVEAL MHC class I binding assay of nonamers
Assay conditions: score as % of positive control peptide
Numbers only.

Worked examples, 2 substances total:
[[record]]
substance = "NP753(K): unconjugated HBV long peptide, core KK + 738-770 (S to T at 743) + KKK (KKKEFGATVELLSFLPSDFFPSVRDLLDTASALYRKKK; HBV CONSENSUS SEQUENCE)"
numeric_value = 1

[[record]]
substance = "NP277(K): unconjugated HBV long peptide, polymerase 260-293 + KKK (RVSWPKFAVPNLQSLTNLLSSNLSWLSLDVSAAFYHKKK; HBV CONSENSUS SEQUENCE)"
numeric_value = 3


Shift focus to the following entry.
Asked: Report Number of nonamers having a binding score >= 45%, HLA-B*0702 for NP151: unconjugated HBV long peptide, polymerase region 134-168 (PEHVVNHYFQTRHYLHTLWKAGILYKRETTRSASF; HBV CONSENSUS SEQUENCE) tested on HLA-B*0702 (Homo sapiens, UniProt P01889).
Given back: 3

----------
System under test: HLA-A*1101 (Homo sapiens, UniProt P04439, A114D/D185E/E176A/F33Y/L180Q/S129P/T187R)
Construct: purchased ProImmune
Assay explanation: ProImmune REVEAL MHC class I binding assay of nonamers
Assay conditions: score as % of positive control peptide
Please provide measured Number of nonamers having a binding score >= 45%, HLA-A*1101 for the entries that follow.
Answers are plain numbers.

[[record]]
substance = "NP856(K): unconjugated HBV long peptide, core 839-873 + KKK (LTFGRETVLEYLVSFGVWIRTPPAYRPPNAPILSTKKK; HBV CONSENSUS SEQUENCE)"
system_under_test = "HLA-A*1101 (Homo sapiens, UniProt P04439, A114D/D185E/E176A/F33Y/L180Q/S129P/T187R)"
numeric_value = 0

[[record]]
substance = "NP277(K): unconjugated HBV long peptide, polymerase 260-293 + KKK (RVSWPKFAVPNLQSLTNLLSSNLSWLSLDVSAAFYHKKK; HBV CONSENSUS SEQUENCE)"
system_under_test = "HLA-A*1101 (Homo sapiens, UniProt P04439, A114D/D185E/E176A/F33Y/L180Q/S129P/T187R)"
numeric_value = 0

[[record]]
substance = "NP151: unconjugated HBV long peptide, polymerase region 134-168 (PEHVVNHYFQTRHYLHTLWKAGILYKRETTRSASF; HBV CONSENSUS SEQUENCE)"
system_under_test = "HLA-A*1101 (Homo sapiens, UniProt P04439, A114D/D185E/E176A/F33Y/L180Q/S129P/T187R)"
numeric_value = 3

[[record]]
substance = "NP753(K): unconjugated HBV long peptide, core KK + 738-770 (S to T at 743) + KKK (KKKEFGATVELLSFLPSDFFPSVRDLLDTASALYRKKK; HBV CONSENSUS SEQUENCE)"
system_under_test = "HLA-A*1101 (Homo sapiens, UniProt P04439, A114D/D185E/E176A/F33Y/L180Q/S129P/T187R)"
numeric_value = 1

[[record]]
substance = "NP113: unconjugated HBV long peptide, polymerase region 96-130 of virtual HBV proteome (VGPLTVNEKRRLKLIMPARFYPNVTKYLPLDKGIK; HBV CONSENSUS SEQUENCE)"
system_under_test = "HLA-A*1101 (Homo sapiens, UniProt P04439, A114D/D185E/E176A/F33Y/L180Q/S129P/T187R)"
numeric_value = 5


Shift focus to the following entry.
Asked: # Number of nonamers having a binding score >= 45%, HLA-A*1101 lookup, item NP376: unconjugated HBV long peptide, polymerase 359-398 (C to S substitution at 393) (KLHLYSHPIILGFRKIPMGVGLSPFLLAQFTSAISSVVRR; HBV CONSENSUS SEQUENCE)
Given back: 1
